Biological target: m-calpain (Rattus norvegicus)
Construct: diminishing activity >1,000-fold compared to full-length m-calpain; His6 (C); made in house; host or cells: E. coli
Sequence (Q07009 whole entry): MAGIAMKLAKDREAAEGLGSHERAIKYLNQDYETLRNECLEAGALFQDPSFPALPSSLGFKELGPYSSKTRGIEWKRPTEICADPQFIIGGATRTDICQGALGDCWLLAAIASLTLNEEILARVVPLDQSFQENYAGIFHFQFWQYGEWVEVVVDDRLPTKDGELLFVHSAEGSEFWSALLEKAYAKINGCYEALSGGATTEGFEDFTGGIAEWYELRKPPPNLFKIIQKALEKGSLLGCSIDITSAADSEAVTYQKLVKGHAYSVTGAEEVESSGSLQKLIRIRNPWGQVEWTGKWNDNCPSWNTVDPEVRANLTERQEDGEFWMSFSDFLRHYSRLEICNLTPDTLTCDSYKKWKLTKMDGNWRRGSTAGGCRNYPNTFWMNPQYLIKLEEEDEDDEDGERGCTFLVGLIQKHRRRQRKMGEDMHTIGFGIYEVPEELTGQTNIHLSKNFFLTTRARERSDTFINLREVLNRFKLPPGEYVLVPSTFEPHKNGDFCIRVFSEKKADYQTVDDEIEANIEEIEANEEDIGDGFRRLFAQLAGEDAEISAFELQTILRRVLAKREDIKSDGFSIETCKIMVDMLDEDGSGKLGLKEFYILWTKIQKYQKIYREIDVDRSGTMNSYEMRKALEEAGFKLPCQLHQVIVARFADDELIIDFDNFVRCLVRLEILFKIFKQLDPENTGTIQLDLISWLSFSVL
Sequence (Q64537 87-270 partner limits assumed): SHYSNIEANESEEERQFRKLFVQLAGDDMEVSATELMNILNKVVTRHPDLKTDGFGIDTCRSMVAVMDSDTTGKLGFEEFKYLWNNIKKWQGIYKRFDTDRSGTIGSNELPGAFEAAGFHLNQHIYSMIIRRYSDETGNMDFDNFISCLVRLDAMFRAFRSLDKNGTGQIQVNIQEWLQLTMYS
Assay: Calpastatin inhibition assay, hydrolysis by m-calpain
Type: biochemical
Details: mean ±s.e.m.
pIC50: −log10 of the molar value.

# substance, pIC50
measured = [
    ("Ac-ALGIKEGTIPPEYRKLLE-NH2 [peptide B1, Ac-ALGIKEGTIPPEYRKLLE-NH2]", 6.39),
]

###

Molecular target: μI-II (protease core from μ-calpain) (Rattus norvegicus, UniProt P97571)
Construct: the protease core from μ-calpain (μI-II) were expressed in E. coli; made in house; host or cells: E. coli
Sequence (P97571 55-354 limits assumed): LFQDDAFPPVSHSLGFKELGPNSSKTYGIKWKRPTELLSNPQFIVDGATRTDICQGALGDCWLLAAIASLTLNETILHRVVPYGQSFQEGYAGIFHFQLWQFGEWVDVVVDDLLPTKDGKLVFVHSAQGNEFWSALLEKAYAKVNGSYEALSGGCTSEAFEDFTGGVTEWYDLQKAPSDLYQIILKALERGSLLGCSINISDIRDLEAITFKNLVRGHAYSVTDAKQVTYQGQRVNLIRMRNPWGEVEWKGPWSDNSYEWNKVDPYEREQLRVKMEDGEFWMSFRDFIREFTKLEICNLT
Assay: Calpastatin inhibition assay, hydrolysis by μI-II
Format: biochemical
Conditions: mean ±s.e.m.
pIC50: −log10 of the molar value.

# substance, measured_target, pIC50
rows = [
    ("AB: 57-residue calpastatin repeat 1 fragment with regions A and B, ending at Lys190 (SKTKFQDAPSADGESVAGGVTVATASDKVVVKKKEKKSLTPTLPMESTLNKLSDKSG)", "μI-II (protease core from μ-calpain) (Rattus norvegicus, UniProt P97571)", 4.09),
]

Values were extracted from patent US20120240246A1.
